Values were extracted from ChEMBL document CHEMBL1141218.

Listed here are molecules together with their documented pKi.
Molecular target: Sodium-dependent serotonin transporter (Rattus norvegicus)
Sequence (P31652 whole entry): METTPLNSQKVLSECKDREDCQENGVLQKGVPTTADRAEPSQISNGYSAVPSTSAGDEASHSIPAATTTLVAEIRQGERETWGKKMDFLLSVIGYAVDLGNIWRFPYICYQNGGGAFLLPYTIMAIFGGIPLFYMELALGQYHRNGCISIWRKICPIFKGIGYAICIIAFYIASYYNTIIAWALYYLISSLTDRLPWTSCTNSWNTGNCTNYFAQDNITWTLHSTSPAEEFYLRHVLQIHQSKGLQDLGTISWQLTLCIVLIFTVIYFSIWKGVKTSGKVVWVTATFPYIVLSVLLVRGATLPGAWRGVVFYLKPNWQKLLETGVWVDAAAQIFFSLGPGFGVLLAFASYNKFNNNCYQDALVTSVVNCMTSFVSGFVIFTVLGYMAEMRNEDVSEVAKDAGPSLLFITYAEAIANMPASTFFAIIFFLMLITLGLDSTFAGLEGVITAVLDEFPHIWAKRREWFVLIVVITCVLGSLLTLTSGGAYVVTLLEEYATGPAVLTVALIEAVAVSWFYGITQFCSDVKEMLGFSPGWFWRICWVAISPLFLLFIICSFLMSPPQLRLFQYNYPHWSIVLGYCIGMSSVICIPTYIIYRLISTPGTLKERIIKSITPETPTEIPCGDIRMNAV
Assay: Ability to inhibit [3H]5-HT uptake through SERT in rat synaptosomes
Assay type: subcellular, Brain
pKi: −log10 of the molar value.

- Given smiles: "CN1CC[C@@H](c2ccc(Cl)cc2)[C@H](CSCC(=O)N(C)C)C1"
  pKi: 6.73
- Given smiles: "CC(C)NC(=O)CSC[C@@H]1CN(C)CC[C@@H]1c1ccc(Cl)cc1"
  pKi: 6.81
- Given smiles: "CNC(=O)CSC[C@@H]1CN(C)CC[C@@H]1c1ccc(Cl)cc1"
  pKi: 6.46
- Given smiles: "CN1CC[C@@H](c2ccc(Cl)cc2)[C@@H](CSCC(=O)Nc2ccccc2)C1"
  pKi: 7.04
- Given smiles: "CN1CC[C@@H](c2ccc(Cl)cc2)[C@H](CSCC(=O)N2CCCCC2)C1"
  pKi: 6.72

====

Listing: pKi of selected molecules
Molecular target: Norepinephrine transporter (Rattus norvegicus)
Sequence (Q9WTR4 whole entry): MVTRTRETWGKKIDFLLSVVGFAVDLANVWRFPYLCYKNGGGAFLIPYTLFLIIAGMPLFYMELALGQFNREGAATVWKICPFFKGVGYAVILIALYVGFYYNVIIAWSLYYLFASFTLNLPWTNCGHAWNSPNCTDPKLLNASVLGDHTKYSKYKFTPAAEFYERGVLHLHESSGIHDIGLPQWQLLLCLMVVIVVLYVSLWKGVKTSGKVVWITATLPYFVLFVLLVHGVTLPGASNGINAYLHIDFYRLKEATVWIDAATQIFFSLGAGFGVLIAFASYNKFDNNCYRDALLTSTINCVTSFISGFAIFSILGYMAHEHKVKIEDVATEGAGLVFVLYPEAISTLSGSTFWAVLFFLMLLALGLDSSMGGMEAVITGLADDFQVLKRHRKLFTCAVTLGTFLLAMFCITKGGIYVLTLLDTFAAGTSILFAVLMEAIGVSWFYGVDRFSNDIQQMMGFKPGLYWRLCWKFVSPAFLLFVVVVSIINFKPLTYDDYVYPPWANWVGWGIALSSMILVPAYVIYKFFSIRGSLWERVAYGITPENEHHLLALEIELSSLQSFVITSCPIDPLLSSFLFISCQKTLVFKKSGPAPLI
Assay: Ability to inhibit [3H]NE uptake through NET in rat synaptosomes
pKi: −log10 of the molar value.

- Given smiles: "CC(=O)OCCSC[C@@H]1CN(C)CC[C@@H]1c1ccc(Cl)cc1"
  Inequality symbol: "="
  pKi: 7.52
- Given smiles: "COC(=O)CSC[C@H]1CN(C)CC[C@H]1c1ccc(Cl)cc1"
  Inequality symbol: "="
  pKi: 7.01
- Given smiles: "CN1CC[C@@H](c2ccc(Cl)cc2)[C@@H](CSCC(=O)Nc2cccc3ccccc23)C1"
  Inequality symbol: "="
  pKi: 7.00
- Given smiles: "CN1CC[C@@H](c2ccc(Cl)cc2)[C@@H](CSCCO)C1"
  Inequality symbol: "<"
  pKi: 5.52
- Given smiles: "CN1CC[C@@H](c2ccc(Cl)cc2)[C@@H](CSCC(=O)N(C)C)C1"
  Inequality symbol: "="
  pKi: 7.33
- Given smiles: "CN1CC[C@@H](c2ccc(Cl)cc2)[C@@H](CSCC(=O)N2CCCCC2)C1"
  Inequality symbol: "="
  pKi: 6.87

====

Target: Sodium-dependent serotonin transporter (Rattus norvegicus)
Test: Ability to inhibit [3H]5-HT uptake through SERT in rat synaptosomes
Consider the following molecules and their measured log10 of Ki readings.
Metric: log10 of Ki (log10 of the value in nM)

- Given smiles: "CN1CC[C@@H](c2ccc(Cl)cc2)[C@@H](CSCC(=O)NCc2ccccc2)C1"
  log10 of Ki: 1.34
- Given smiles: "CN1CC[C@@H](c2ccc(Cl)cc2)[C@H](CSCCO)C1"
  log10 of Ki: 2.11
- Given smiles: "CC(C)NC(=O)CSC[C@@H]1CN(C)CC[C@H]1c1ccc(Cl)cc1"
  log10 of Ki: 2.14
- Given smiles: "CN1CC[C@@H](c2ccc(Cl)cc2)[C@@H](CSCC(=O)N(C)C)C1"
  log10 of Ki: 2.24
- Given smiles: "CN1CC[C@@H](c2ccc(Cl)cc2)[C@H](CSCCOC(=O)c2ccccc2)C1"
  log10 of Ki: 1.85
- Given smiles: "CC(C)NC(=O)CSC[C@H]1CN(C)CC[C@H]1c1ccc(Cl)cc1"
  log10 of Ki: 1.56
- Given smiles: "CC(=O)OCCSC[C@H]1CN(C)CC[C@H]1c1ccc(Cl)cc1"
  log10 of Ki: 2.10
- Given smiles: "CN1CC[C@H](c2ccc(Cl)cc2)[C@H](CSCC(=O)N2CCCCC2)C1"
  log10 of Ki: 1.62
- Given smiles: "CN1CC[C@@H](c2ccc(Cl)cc2)[C@H](CSCC(=O)NCCc2ccccc2)C1"
  log10 of Ki: 1.83
- Given smiles: "CNC(=O)CSC[C@H]1CN(C)CC[C@H]1c1ccc(Cl)cc1"
  log10 of Ki: 3.25
- Given smiles: "COC(=O)CSC[C@@H]1CN(C)CC[C@H]1c1ccc(Cl)cc1"
  log10 of Ki: 1.84
- Given smiles: "CN1CC[C@H](c2ccc(Cl)cc2)[C@H](CSCC(N)=O)C1"
  log10 of Ki: 1.32
- Given smiles: "CN1CC[C@H](c2ccc(Cl)cc2)[C@H](CSCC(=O)N(C)C)C1"
  log10 of Ki: 0.94
- Given smiles: "CN1CC[C@@H](c2ccc(Cl)cc2)[C@@H](CSCCO)C1"
  log10 of Ki: 2.48
- Given smiles: "CC(=O)OCCSC[C@@H]1CN(C)CC[C@@H]1c1ccc(Cl)cc1"
  log10 of Ki: 2.67
- Given smiles: "CN1CC[C@@H](c2ccc(Cl)cc2)[C@@H](CSCC(=O)NCCc2ccccc2)C1"
  log10 of Ki: 2.08
- Given smiles: "COC(=O)CSC[C@H]1CN(C)CC[C@H]1c1ccc(Cl)cc1"
  log10 of Ki: 2.61
- Given smiles: "CN1CC[C@H](c2ccc(Cl)cc2)[C@H](CSCCO)C1"
  log10 of Ki: 2.27
- Given smiles: "CN1CC[C@H](c2ccc(Cl)cc2)[C@H](CSCC(=O)NCc2ccccc2)C1"
  log10 of Ki: 1.36
- Given smiles: "CN1CC[C@@H](c2ccc(Cl)cc2)[C@@H](CSCC(=O)N2CCCCC2)C1"
  log10 of Ki: 2.76
- Given smiles: "CN1CC[C@@H](c2ccc(Cl)cc2)[C@H](CSCC(=O)NCc2ccccc2)C1"
  log10 of Ki: 2.88
- Given smiles: "CC(=O)OCCSC[C@@H]1CN(C)CC[C@H]1c1ccc(Cl)cc1"
  log10 of Ki: 2.11
- Given smiles: "CN1CC[C@@H](c2ccc(Cl)cc2)[C@H](CSCC(N)=O)C1"
  log10 of Ki: 2.74
